The reported measurements were obtained from patent US20180353462A1.

- assay_system: FGR (Homo sapiens, UniProt P09769)
- Construct: made in house
- Sequence (P09769 whole entry): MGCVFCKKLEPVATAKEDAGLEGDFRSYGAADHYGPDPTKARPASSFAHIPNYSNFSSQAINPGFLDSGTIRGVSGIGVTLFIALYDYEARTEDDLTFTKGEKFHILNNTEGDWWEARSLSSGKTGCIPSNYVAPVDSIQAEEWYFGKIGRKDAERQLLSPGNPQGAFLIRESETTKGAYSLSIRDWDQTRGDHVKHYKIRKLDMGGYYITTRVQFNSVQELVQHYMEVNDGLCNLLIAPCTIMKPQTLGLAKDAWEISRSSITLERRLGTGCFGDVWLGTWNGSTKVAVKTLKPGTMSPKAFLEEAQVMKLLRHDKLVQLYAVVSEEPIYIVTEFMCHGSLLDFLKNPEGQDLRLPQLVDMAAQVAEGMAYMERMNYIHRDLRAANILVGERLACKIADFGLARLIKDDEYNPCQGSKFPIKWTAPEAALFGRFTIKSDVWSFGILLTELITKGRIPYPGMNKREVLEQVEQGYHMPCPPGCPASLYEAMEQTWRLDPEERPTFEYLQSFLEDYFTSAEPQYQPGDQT
- assay_protocol: Kinase competition binding assay, FGR
- assay_conditions: Table 1 kinase panel
measure: IC50

Look up IC50 for this molecule: COc1ccc(-c2cc(=O)c3c(O)c(C/C=C(\C)CCC=C(C)C)c(O)cc3o2)cc1OC [FBL-03D] > 30000 nM

# query: IC50 of entry COc1cc(-c2cc(=O)c3c(O)c(C/C=C(\C)CCC=C(C)C)c(O)cc3o2)ccc1O [FBL-03A] > 20000 nM

Need IC50 of COc1cc(-c2cc(=O)c3c(O)cc(O)c(C/C=C(\C)CCC=C(C)C)c3o2)ccc1O [FBL-03C] , thanks. > 20000 nM

====

Field: IC50. Provide a value for each of the compounds that follow.
- assay_system: MEK5 (Homo sapiens)
- Construct: made in house
- Sequence (Q13163 whole entry): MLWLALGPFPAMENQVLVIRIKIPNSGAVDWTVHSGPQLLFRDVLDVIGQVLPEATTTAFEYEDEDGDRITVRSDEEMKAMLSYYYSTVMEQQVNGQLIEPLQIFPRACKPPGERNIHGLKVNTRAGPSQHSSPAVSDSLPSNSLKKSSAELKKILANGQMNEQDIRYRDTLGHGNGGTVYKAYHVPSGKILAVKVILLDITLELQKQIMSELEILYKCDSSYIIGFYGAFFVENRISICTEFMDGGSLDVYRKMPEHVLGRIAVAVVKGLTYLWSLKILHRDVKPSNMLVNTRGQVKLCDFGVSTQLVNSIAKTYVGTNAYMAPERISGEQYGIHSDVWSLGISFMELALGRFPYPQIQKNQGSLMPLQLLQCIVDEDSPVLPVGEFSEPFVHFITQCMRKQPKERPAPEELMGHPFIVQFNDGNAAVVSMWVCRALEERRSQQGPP
- assay_protocol: Kinase competition binding assay, MEK5
- assay_conditions: Table 1 kinase panel

Requested read-out: IC50. Entry: COc1cc(-c2cc(=O)c3c(O)cc(O)c(CC=C(C)C)c3o2)ccc1O [FBL-03G] > 1000 nM

Name the reported IC50 value associated with the compound COc1ccc(-c2cc(=O)c3c(O)c(C/C=C(\C)CCC=C(C)C)c(O)cc3o2)cc1OC [FBL-03D] > 30000 nM

May I ask what IC50 has been recorded for COc1cc(-c2cc(=O)c3c(O)c(CC=C(C)C)c(O)cc3o2)ccc1O [FBL-03B] ? > 1000 nM

====

- assay_system: FLT3(D835V) (Homo sapiens, UniProt P36888, D835V)
- Construct: made in house
- assay_protocol: Kinase competition binding assay, FLT3(D835V)
- assay_conditions: Table 1 kinase panel
measure: IC50

Please report the recorded IC50 for COc1cc(-c2cc(=O)c3c(O)c(CC=C(C)C)c(O)cc3o2)ccc1O [FBL-03B] . < 1000 nM

So what does the record say about IC50 for COc1ccc(-c2cc(=O)c3c(O)c(C/C=C(\C)CCC=C(C)C)c(O)cc3o2)cc1OC [FBL-03D] ? > 30000 nM

Which IC50 reading was recorded for the compound COc1cc(-c2cc(=O)c3c(O)cc(O)c(CC=C(C)C)c3o2)ccc1O [FBL-03G] ? < 1000 nM

====

- assay_system: FLT3(D835Y) (Homo sapiens, UniProt P36888, D835Y)
- Construct: made in house
- Type: binding
- assay_conditions: Table 4; read-out: Acute Myeloid Leukemia Kinases FLT3-D835Y IC50
Labelling field: enter rule met if recorded IC50 is less than 0.04 µM. Enter rule not met if it equals or exceeds that cut-off.

Hello, is IC50 of the following compound strictly smaller than 0.04 µM? COc1cc(-c2cc(=O)c3c(O)c(OC)c(O)cc3o2)ccc1O rule not met

Given the entry O=c1c(O)c(-c2ccc(O)c(O)c2)oc2cc(O)cc(O)c12 , would its reported IC50 be below 0.04 µM? rule not met

Is 0.04 µM strictly greater than the compound's reported IC50? compound: COc1cc(O)c2c(=O)c(O)c(-c3ccc(O)c(OC)c3)oc2c1 rule met

Input COc1ccc(C2CC(=O)c3c(O)cc(O)cc3O2)cc1O (stereo not drawn) ; condition: IC50 strictly below 0.04 µM. Does it hold? rule not met

Is the reported IC50 for O=C1CC(c2ccc(O)c(O)c2)Oc2cc(O)cc(O)c21 (stereo not drawn) strictly below 0.04 µM? rule not met

I'd appreciate it if you could check whether Cc1cc2oc(-c3cccc(N)c3)cc(=O)c2c([N+](=O)[O-])c1C has IC50 smaller than 0.04 µM. rule not met
